# measured-on: 5-HT4 receptor (Cavia porcellus)
# Construct: striatum was isolated which was cryopreserved at −80° C. until use; from tissue; host or cells: guinea pig (Slc-Hartley) striatum membranes
# Sequence (O70528 whole entry): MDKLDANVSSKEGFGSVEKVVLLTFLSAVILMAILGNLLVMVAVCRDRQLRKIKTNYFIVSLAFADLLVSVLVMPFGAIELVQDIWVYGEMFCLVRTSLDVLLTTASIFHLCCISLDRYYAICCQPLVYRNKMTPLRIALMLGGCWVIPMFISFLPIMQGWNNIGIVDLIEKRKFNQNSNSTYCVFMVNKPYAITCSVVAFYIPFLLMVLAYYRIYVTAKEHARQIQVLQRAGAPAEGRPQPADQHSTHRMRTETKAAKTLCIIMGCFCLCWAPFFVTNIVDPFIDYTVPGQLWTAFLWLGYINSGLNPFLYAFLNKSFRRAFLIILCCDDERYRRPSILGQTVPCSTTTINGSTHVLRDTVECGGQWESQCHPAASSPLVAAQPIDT
# assay-remarks: Test Example 1: Serotonin 4 (5-HT4) receptor binding assay, [3H]-GR113808, guinea pig striatum membranes (Table 96)
# condition-context: Guinea pig 5-HT4 receptor binding assay, [3H]-GR113808, striatum membranes; mean value of each group
Counter-ions that a name gives are not always drawn.
parameter: IC50

- CCc1nn(-c2noc(C3CCN(CC4CCN(C(=O)OC)CC4)CC3)n2)c2cc(F)ccc12 [Example 171]: 31.9 nM
- CCc1nn(-c2noc(C3CCN(C4CCOC4)CC3)n2)c2cc(F)ccc12 (centres unmarked) [Example 138]: < 20 nM
- CCc1nn(-c2noc(C3CCN(CC4CN(C(=O)COC)C4)CC3)n2)c2c(F)cccc12 [Example 224, hydrochloride]: < 20 nM
- CCc1nn(-c2noc(C3CCN(CC4CCCO4)CC3)n2)c2ccccc12 (centres unmarked) [Example 132]: < 20 nM
- CCc1nn(-c2noc(C3CCN(CC4CCOCC4)CC3)n2)c2cc(F)ccc12 [Example 134]: 24.2 nM
- CCc1nn(-c2noc(C3CCN(C(C)C)CC3)n2)c2cc(F)ccc12 [Example 143]: < 20 nM
- CC(C)CN1CCC(c2nc(-n3nc(C(C)C)c4ccccc43)no2)CC1 [Example 98, trifluoroacetate]: 32.1 nM
- CCc1nn(-c2noc(C3CCN(CCC4CCCO4)CC3)n2)c2cc(F)ccc12 (centres unmarked) [Example 131]: < 20 nM

* * *

# measured-on: human 5-HT4b receptor (Homo sapiens)
# Construct: expressed in transfected cells; host or cells: CHO cells (G418 selection)
# assay-remarks: Test Example 4: Serotonin 4 (5-HT4) receptor agonist activity assay, cAMP HTRF in CHO cells (Table 100)
# Format: cell-based
# condition-context: concentration showing 50% of IA; mean value
Counter-ions that a name gives are not always drawn.
Readings of EC50 for the listed compounds
parameter: EC50 (nM)

- CC(C)c1nn(-c2noc(C[C@H]3CCN(C4CCN(C(=O)CO)CC4)C3)n2)c2c(F)cccc12: 2.6
- COCC(=O)N1CCC(CN2CCC(c3nc(-n4nc(C(C)C)c5ccc(F)c(F)c54)no3)CC2)CC1 [Example 481, trifluoroacetate]: 7.1
- CC(=O)N1CC[C@@H](CN2CC[C@@H](Cc3nc(-n4nc(C(C)C)c5cccc(F)c54)no3)C2)C1: 8.5
- COC(=O)N1CCC(N2CCC(c3nc(-n4nc(C(C)C)c5ccc(F)c(F)c54)no3)CC2)CC1 [Example 463, trifluoroacetate]: 8.3
- CC(C)c1nn(-c2noc(C3CCN(C4(C)CCN(C(=O)CO)CC4)CC3)n2)c2c(F)cccc12: 1.3
- CC(=O)N1CCC(N2CCC(c3nc(-n4nc(C(C)C)c5ccc(F)c(F)c54)no3)CC2)CC1 [Example 464, trifluoroacetate]: 31.2
- CC(C)c1nn(-c2noc(C3CCN([C@H]4C[C@H]5CC[C@@H](C4)N5C(=O)CO)CC3)n2)c2c(F)cccc12: 5

* * *

# measured-on: human 5-HT4b receptor (Homo sapiens)
# Construct: expressed in transfected cells; host or cells: CHO cells (G418 selection)
# assay-remarks: Test Example 2: Serotonin 4 (5-HT4) receptor agonist activity assay, cAMP HTRF in CHO cells (Table 97)
# Assay type: cell-based
# condition-context: concentration showing 50% of IA; cAMP in CHO cells expressing human 5-HT4b receptor; mean value
pEC50: −log10 of the molar value. Where a name gives a salt, the structure may show the parent alone.
Label Not met if pEC50 falls below 8; label Met in every other case.

* CCc1nn(-c2noc(C3CCN(C4CCOC4)CC3)n2)c2cc(F)ccc12 (stereo not shown) [Example 138] | Not met
* CCc1nn(-c2noc(C3CCN(CCCOC)CC3)n2)c2c(F)cccc12 [Example 95] | Met
* CCc1nn(-c2noc(C3CCN(C[C@@H]4CCN(C(=O)OCCF)C4)CC3)n2)c2ccccc12 [Example 195] | Not met
* CC(C)CN1CCC(c2nc(-n3nc(C4CCC4)c4ccccc43)no2)CC1 [Example 115, trifluoroacetate] | Not met
* CCc1nn(-c2noc(C3CCN(CC4CC4)CC3)n2)c2ccccc12 [Example 112, trifluoroacetate] | Not met
* CCc1nn(-c2noc(C3CCN(C4CCN(C(C)=O)CC4)CC3)n2)c2c(F)cccc12 [Example 229, hydrochloride] | Met
* CCCN1CCC(c2nc(-n3nc(C(C)C)c4ccccc43)no2)CC1 [Example 117, trifluoroacetate] | Not met
* CCC(C)N1CCC(c2nc(-n3nc(C4CCC4)c4ccccc43)no2)CC1 (stereo not shown) [Example 114, trifluoroacetate] | Not met

* * *

# measured-on: human 5-HT4b receptor (Homo sapiens)
# Construct: expressed in transfected cells; host or cells: CHO cells (G418 selection)
# assay-remarks: Test Example 4: Serotonin 4 (5-HT4) receptor agonist activity assay, cAMP HTRF in CHO cells (Table 100)
# Format: cell-based
# condition-context: CHO, 0.25 h; intrinsic activity, maximal activity of 5-HT defined as 100%; mean value; read-out: IA (%)
Where a name gives a salt, the structure may show the parent alone.
Label Not met if Emax falls below 80%; label Met in every other case.

• CCc1nn(-c2noc(C3CCN(C[C@H]4CCN(S(C)(=O)=O)C4)CC3)n2)c2c(F)cccc12 = Not met
• CC(C)c1nn(-c2noc(C3CC(NCC4CCOCC4)C3)n2)c2c(F)cccc12 (stereo not shown) = Met
• CCc1nn(-c2noc(C3CCN(C[C@@H]4CCN(C(=O)COC)C4)CC3)n2)c2c(F)cccc12 = Not met
• CCCc1nn(-c2noc(C3CCN(C4CCN(C(=O)CO)CC4)CC3)n2)c2c(F)cccc12 = Met
• CC(=O)N1CC[C@H](NC2CC(c3nc(-n4nc(C(C)C)c5cccc(F)c54)no3)C2)C1 (stereo partly shown) = Met
• CC(C)c1nn(-c2noc(C[C@@H]3CCN(C[C@@H]4CCCN4C(=O)CO)C3)n2)c2c(F)cccc12 = Not met
• CC(=O)N1CC(CN2CCC(c3nc(-n4nc(C(C)C)c5cccc(F)c54)no3)CC2)C1 [Example 219, hydrochloride] = Met

* * *

# measured-on: 5-HT4 receptor (Cavia porcellus)
# Construct: striatum was isolated which was cryopreserved at −80° C. until use; from tissue; host or cells: guinea pig (Slc-Hartley) striatum membranes
# assay-remarks: Test Example 1: Serotonin 4 (5-HT4) receptor binding assay, [3H]-GR113808, guinea pig striatum membranes (Table 96)
# condition-context: Guinea pig 5-HT4 receptor binding assay, [3H]-GR113808, striatum membranes; mean value of each group
pIC50: −log10 of the molar value. Counter-ions that a name gives are not always drawn.
Readings of pIC50 for the listed molecules
parameter: pIC50

• CCc1nn(-c2noc(C3CCN(C4CCN(C(C)=O)CC4)CC3)n2)c2c(F)cccc12 [Example 229, hydrochloride] = > 7.70
• CC(C)c1nn(-c2noc(C3CCN(C4CCN(C(=O)CO)CC4)CC3)n2)c2c(F)cccc12 [Example 242] = > 7.70
• CCc1nn(-c2noc(C3CCN(C4CCN(C(C)=O)CC4)CC3)n2)c2cc(F)ccc12 [Example 228, hydrochloride] = 7.54
• CCc1nn(-c2noc(C3CCN(C[C@@H]4CCCN4C(=O)OC)CC3)n2)c2ccccc12 [Example 178] = > 7.70
• CCCN1CCC(c2nc(-n3nc(C(C)C)c4ccccc43)no2)CC1 [Example 117, trifluoroacetate] = 7.59
• CCc1nn(-c2noc(C3CCN(CCCOC)CC3)n2)c2cc(F)ccc12 [Example 92] = > 7.70
• CC(C)CN1CCC(c2nc(-n3nc(C4CCC4)c4ccccc43)no2)CC1 [Example 115, trifluoroacetate] = 7.40
• CCc1nn(-c2noc(C3CCN(C[C@@H]4CCN(C(=O)OCCF)C4)CC3)n2)c2ccccc12 [Example 195] = > 7.70

* * *

# measured-on: human 5-HT4b receptor (Homo sapiens, UniProt Q13639)
# Construct: expressed in transfected cells; host or cells: CHO cells (G418 selection)
# Sequence (Q13639 whole entry): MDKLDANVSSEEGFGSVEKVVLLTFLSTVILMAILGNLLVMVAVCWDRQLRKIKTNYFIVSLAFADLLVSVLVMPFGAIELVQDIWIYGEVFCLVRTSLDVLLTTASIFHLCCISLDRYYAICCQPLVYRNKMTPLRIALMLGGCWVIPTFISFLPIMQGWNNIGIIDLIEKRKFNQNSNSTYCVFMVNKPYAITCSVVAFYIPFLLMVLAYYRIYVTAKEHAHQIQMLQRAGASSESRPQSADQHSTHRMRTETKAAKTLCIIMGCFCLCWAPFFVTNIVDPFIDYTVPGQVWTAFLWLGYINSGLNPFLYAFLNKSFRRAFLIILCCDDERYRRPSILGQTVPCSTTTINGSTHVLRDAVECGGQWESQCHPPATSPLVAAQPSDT
# assay-remarks: Test Example 4: Serotonin 4 (5-HT4) receptor agonist activity assay, cAMP HTRF in CHO cells (Table 100)
# Format: cell-based
# condition-context: concentration showing 50% of IA; mean value
# Description: The cAMP measurement test used herein was carried out by using CISBIO HTRF (trademark) cAMP Hirange kit according to the manufacturer's instructions attached therewith. CHO cells expressing human 5-HT4b receptor were incubated in Medium 1 [DMEM/1% NEAA, 1% penicillin/streptomycin (P/S), 0.2 mg/mL GENETICIN (G418), 10% FBS] at 37° C. under 5% CO2 condition. […] Then, time-resolved fluorescence was measured by En Vision (excitation wavelength: 330 nm, fluorescence wavelength: 620/665 nm). […]
pEC50: −log10 of the molar value. Structures can show the parent of a compound that is named as a salt.
Label Criterion not met if pEC50 falls below 8; label Criterion met in every other case.

• CC(C)c1nn(-c2noc(C[C@@H]3CCN(C[C@H]4CCN(S(C)(=O)=O)C4)C3)n2)c2c(F)cccc12 = Criterion met
• CC(=O)N1CC(CN2CCC(c3nc(-n4nc(C(C)C)c5cccc(F)c54)no3)CC2)C1 [Example 219, hydrochloride] = Criterion met
• CC(C)c1nn(-c2noc(C[C@H]3CCN(C[C@@H]4CCN(C(=O)CO)C4)C3)n2)c2c(F)cccc12 = Criterion met
• CC(C)c1nn(-c2noc(C[C@H]3CCN(C[C@@H]4CCN(S(C)(=O)=O)C4)C3)n2)c2c(F)cccc12 = Criterion met
• CC(=O)N1CCC(C)(N2CCC(c3nc(-n4nc(C(C)C)c5cccc(F)c54)no3)CC2)CC1 = Criterion met
• CC(C)c1nn(-c2noc(C[C@@H]3CCN(C[C@@H]4CCCN4C(=O)CO)C3)n2)c2c(F)cccc12 = Criterion not met
• COCC(=O)N1CC(CN2CCC(c3nc(-n4nc(C(C)C)c5ccc(F)c(F)c54)no3)CC2)C1 [Example 473, trifluoroacetate] = Criterion not met
• CC(C)c1nn(-c2noc(C[C@H]3CCN(CC4CN(S(C)(=O)=O)C4)C3)n2)c2c(F)cccc12 = Criterion met
• CCc1nn(-c2noc(C3CCN(C4(C)CCN(C(C)=O)CC4)CC3)n2)c2c(F)cccc12 = Criterion met
• CC(C)c1nn(-c2noc(C[C@H]3CCN(C4CCN(S(C)(=O)=O)CC4)C3)n2)c2c(F)cccc12 = Criterion met
• CCc1nn(-c2noc(C3CCN(C4(C)CCN(C(=O)N(C)C)CC4)CC3)n2)c2c(F)cccc12 = Criterion met
• CC(C)c1nn(-c2noc(C3CCN(C4CCN(C(=O)CO)CC4C)CC3)n2)c2c(F)cccc12 (centres unmarked) = Criterion met
• CC(=O)N1CC[C@@H](CN2CC[C@H](Cc3nc(-n4nc(C(C)C)c5cccc(F)c54)no3)C2)C1 = Criterion met
• CC(C)c1nn(-c2noc(C3CCN([C@H]4[C@@H]5CCC[C@H]4CN(C(=O)CO)C5)CC3)n2)c2c(F)cccc12 = Criterion met
• CC(=O)N1CC[C@H](CN2CC[C@H](Cc3nc(-n4nc(C(C)C)c5cccc(F)c54)no3)C2)C1 = Criterion met
• CCc1nn(-c2noc(C3CCN(CC4CN(C(C)=O)C4)CC3)n2)c2c(F)c(F)ccc12 [Example 468, trifluoroacetate] = Criterion not met
• CC(C)c1nn(-c2noc(C3CCN(C4CCC4)C3)n2)c2c(F)cccc12 (centres unmarked) = Criterion not met
• CC(C)c1nn(-c2noc(C3CCN(C4CCN(C(=O)CO)CC4)CC3)n2)c2c(F)c(F)ccc12 = Criterion not met
• CC(C)c1nn(-c2noc(C3CCN(C[C@@H]4CCN(S(C)(=O)=O)C4)CC3)n2)c2c(F)cccc12 = Criterion met
